molecular target: VLA-4 (a4b1 integrin) (Homo sapiens, UniProt P05556+P13612); construct: followed by 10 µl of Ramos cell-derived VLA-4; endogenous in cells; host or cells: Ramos cells (VLA-4 preparation derived from the cells); assay: Ramos (VLA-4) / VCAM-1 Cell-Based Screening Assay (cell adhesion); conditions: Calcein-AM labeled Ramos cells adhering to immobilized recombinant human VCAM-1; 45 min at room temperature; read-out: Ramos IC50
Sequence (P13612 34-1032): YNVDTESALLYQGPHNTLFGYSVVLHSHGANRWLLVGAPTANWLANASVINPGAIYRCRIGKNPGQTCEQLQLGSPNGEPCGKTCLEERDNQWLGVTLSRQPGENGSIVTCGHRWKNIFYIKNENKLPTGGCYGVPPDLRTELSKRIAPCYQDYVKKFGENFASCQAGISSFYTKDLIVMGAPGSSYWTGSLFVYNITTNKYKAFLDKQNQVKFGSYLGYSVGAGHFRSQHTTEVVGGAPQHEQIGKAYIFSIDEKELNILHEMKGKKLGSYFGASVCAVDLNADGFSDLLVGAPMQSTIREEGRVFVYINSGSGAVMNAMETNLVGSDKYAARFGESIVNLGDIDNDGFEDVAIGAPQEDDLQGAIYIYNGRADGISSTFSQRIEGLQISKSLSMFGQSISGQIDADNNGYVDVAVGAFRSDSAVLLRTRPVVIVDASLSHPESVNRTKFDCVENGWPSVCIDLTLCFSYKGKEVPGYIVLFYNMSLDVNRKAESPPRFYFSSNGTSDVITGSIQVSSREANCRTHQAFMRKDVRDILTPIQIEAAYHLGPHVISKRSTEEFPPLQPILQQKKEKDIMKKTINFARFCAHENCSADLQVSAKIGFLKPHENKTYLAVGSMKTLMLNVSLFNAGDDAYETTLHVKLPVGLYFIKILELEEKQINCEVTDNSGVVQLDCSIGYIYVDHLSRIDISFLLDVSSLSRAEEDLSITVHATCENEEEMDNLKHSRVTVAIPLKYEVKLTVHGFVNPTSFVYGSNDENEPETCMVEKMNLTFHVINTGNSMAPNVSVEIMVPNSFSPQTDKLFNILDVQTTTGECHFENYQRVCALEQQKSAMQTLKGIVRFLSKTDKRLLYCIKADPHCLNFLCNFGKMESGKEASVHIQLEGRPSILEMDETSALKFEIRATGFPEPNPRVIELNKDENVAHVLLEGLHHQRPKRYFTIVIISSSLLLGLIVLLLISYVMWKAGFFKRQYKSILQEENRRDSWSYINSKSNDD
Sequence (P05556 21-798): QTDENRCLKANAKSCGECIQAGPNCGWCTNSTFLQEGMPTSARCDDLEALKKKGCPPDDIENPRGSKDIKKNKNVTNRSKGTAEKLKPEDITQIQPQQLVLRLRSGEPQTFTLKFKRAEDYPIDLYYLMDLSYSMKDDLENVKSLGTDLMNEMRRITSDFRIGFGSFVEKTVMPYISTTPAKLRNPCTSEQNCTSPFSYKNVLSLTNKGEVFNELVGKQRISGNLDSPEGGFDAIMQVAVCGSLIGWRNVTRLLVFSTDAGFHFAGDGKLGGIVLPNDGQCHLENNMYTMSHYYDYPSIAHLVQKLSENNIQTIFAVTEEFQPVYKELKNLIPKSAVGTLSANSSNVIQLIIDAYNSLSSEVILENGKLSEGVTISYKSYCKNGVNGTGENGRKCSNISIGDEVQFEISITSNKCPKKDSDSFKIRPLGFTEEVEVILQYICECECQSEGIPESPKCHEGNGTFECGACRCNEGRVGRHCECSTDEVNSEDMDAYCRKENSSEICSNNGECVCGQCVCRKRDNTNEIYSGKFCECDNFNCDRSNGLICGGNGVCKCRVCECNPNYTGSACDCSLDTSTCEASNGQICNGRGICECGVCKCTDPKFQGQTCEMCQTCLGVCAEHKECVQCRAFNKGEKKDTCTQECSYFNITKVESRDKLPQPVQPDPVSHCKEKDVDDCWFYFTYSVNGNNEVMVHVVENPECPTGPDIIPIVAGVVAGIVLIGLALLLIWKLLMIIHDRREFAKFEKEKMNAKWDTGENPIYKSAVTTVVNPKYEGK
readout: IC50 (nM)

Cc1cccc(C(=O)N[C@@H](Cc2ccc(NC(=O)c3c(Cl)cccc3Cl)cc2)C(=O)O)c1Cl
1270
Cc1cccc(Cl)c1C(=O)N[C@@H](Cc1ccc(NC(=O)c2c(F)c(F)c(F)c(F)c2F)cc1)C(=O)O
678

A: O=C(N[C@@H](Cc1ccc(NC(=O)c2c(Cl)cccc2Cl)cc1)C(=O)O)c1cccc(Cl)c1Cl
B: Cc1cccc(C(C)C)c1C(=O)N[C@@H](Cc1ccc(NC(=O)c2c(Cl)cccc2Cl)cc1)C(=O)O
Of A and B , whose reported IC50 is the larger number? Reply with the label of the item you choose.
A
(A: 1630 nM, B: 23 nM)
